Tested on: T-47D breast
assay_info: NCI-60 one-dose screen, 48 h (100 = growth as untreated, 0 = no growth, -100 = all killed)
details: 10 µM unless noted
Compounds without any hit were thinned out: in the full panel of roughly 83,000, 20% have a hit. The source made the active and inactive calls. How the source made its calls: active means growth percent below 10; inactive means the rest.
Please respond with reported growth for every item in the list.

growth in this record for `CCOC(=O)c1sc(NC(=O)COc2cccc(/C=C3\Cc4ccc(Cl)cc4C3=O)c2)nc1C` : 98.8% (inactive)

growth in this record for `Cc1cc(C)cc(S(=O)(=O)n2ccc(-c3ccc4c(c3)CCC(C)(C)O4)n2)c1` : 58.2% (inactive)

growth in this record for `O=C(c1ccc(Cl)cc1)c1ccc(Cl)cc1` : 101% (inactive)

growth in this record for CC(C)=CCCC(C)c1ccc(C)c2c1OCN(CC1CCNCC1)C2 (stereo unspecified) : -94.4% (active)

growth in this record for `Oc1ccccc1/C=N/N1CCCCCC1` : 102% (inactive)

growth in this record for `COc1cc(/C=N/OC(=O)Nc2ccccc2)cc(OC)c1OC` : 100% (inactive)

growth in this record for `C[C@@H]1C[C@@H]([C@@H](CC2CC(=O)NC(=O)C2)OC(=O)CC(=O)c2ccccc2)C(=O)[C@@H](C)C1` : -2.63% (active)

growth in this record for `Cc1ccc(C(=O)Cc2ccccc2)c(O)c1` : 95.8% (inactive)

growth in this record for `COc1cccc(C=Nc2cc(C(C)C)c(O)cc2C)c1O` : 51.7% (inactive)

growth in this record for `Cc1nn(-c2nc3ccccc3s2)c(C)c1Oc1ccccc1O` : 87.1% (inactive)

growth in this record for `O=C(CNC(=O)c1cccc2ccccc12)Nc1ccccc1Cc1ccccc1` : 37.7% [5 µM] (inactive)

====

System: LOX IMVI melanoma
assay_info: NCI-60 one-dose screen, 48 h (100 = growth as untreated, 0 = no growth, -100 = all killed)
details: 10 µM unless noted
About 83,000 compounds went through this panel and 20% of them were active in at least one assay; those are over-represented in the sample as a whole.
Is growth at least 60%? Then yes (1). If not, no (0).

// inclusive: growth at least 60%? input: `NC(=NCCCCCCN=C(N)/N=C(\N)Nc1ccc(Cl)cc1)/N=C(\N)Nc1ccc(Cl)cc1`
no (0)

// inclusive: growth at least 60%? input: CC1=C([Se]CC(OC(=O)[C@@H](CSSC(C)(C)C)NC(=O)C(C)(C)C)C(=O)NCCCCCC(=O)OCc2ccccc2)C(=O)c2ccccc2C1=O (stereo partly drawn)
no (0)

// inclusive: growth at least 60%? input: C[C@H]1O[C@@H](O[C@H]2[C@@H](O)C[C@H](O[C@H]3[C@@H](O)C[C@H](O[C@H]4CC[C@]5(C)C6CC[C@]7(C)[C@@H](C8=CC(=O)OC8)CC[C@]7(O)C6CC[C@@H]5C4)O[C@@H]3C)O[C@@H]2C)C[C@H](O)[C@@H]1O (stereo partly drawn)
no (0)

// inclusive: growth at least 60%? input: `Nc1ccc2c(c1Br)Cc1ccccc1-2`
yes (1)

// inclusive: growth at least 60%? input: `COc1cc(-c2nnc(-c3nc(-c4cc(OC)c(OC)c(OC)c4)n4ccccc34)o2)ccc1N`
no (0)

// inclusive: growth at least 60%? input: CN(C)c1ncnc2c1ncn2C1CCCCO1 (stereo not drawn)
yes (1)

// inclusive: growth at least 60%? input: `Cc1cc(C)cc(S(=O)(=O)n2ccc(-c3ccc4c(c3)CCC(C)(C)O4)n2)c1`
yes (1)

// inclusive: growth at least 60%? input: `NS(=O)(=O)c1ccc(-n2ncc3c(N/N=C/c4ccccc4)ncnc32)cc1`
yes (1)
